# maps each entry to its IC50
tgt: GPR6 (Homo sapiens)
Construct: expressed in transfected cells; host or cells: CHO cells
Sequence (P46095 whole entry): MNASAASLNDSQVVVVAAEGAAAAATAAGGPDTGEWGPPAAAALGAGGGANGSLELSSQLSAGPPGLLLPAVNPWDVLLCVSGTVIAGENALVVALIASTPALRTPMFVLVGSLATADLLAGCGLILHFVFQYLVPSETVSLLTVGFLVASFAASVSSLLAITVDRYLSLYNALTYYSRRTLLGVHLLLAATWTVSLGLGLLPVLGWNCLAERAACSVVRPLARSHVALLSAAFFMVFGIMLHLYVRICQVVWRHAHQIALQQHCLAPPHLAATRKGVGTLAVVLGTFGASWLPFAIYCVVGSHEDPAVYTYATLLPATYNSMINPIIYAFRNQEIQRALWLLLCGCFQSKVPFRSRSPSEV
method-notes: GPR6 antagonist functional cAMP assay (LANCE Ultra cAMP TR-FRET, CHO cells stably expressing GPR6)
Assay type: cell-based
settings: CHO cells stably expressing GPR6, cAMP assay

Entry CC(C)(O)C(O)c1cc2nc(-c3cnn(C(F)F)c3)c(N3CCC(Oc4ccc(F)cc4F)CC3)nc2cn1 (single isomer, unassigned) [Compound 584] : reported IC50 = ?
< 100 nM

Would you mind telling me what IC50 value was observed for CC(=O)N1CCc2nc(N3CCC(Oc4ccccc4C#N)CC3)c(-c3cnn(C)c3)nc2C1 ?
100 to 1000 nM

Given CC(=O)N1CCc2nc(N3CCN(Cc4ccn[nH]4)CC3)c(-c3cnn(C)c3)nc2C1 , state its recorded IC50.
≥ 30000 nM

Quick one: IC50 for CC(=O)N1CCc2nc(N3CCN(Cc4ccc(=O)n(C)c4)CC3)c(-c3cnn(C)c3)nc2C1 ?
≥ 30000 nM
